Assay: Caspase-3/7 induction in HepG2 cells by small molecules, qHTS cell viability counter screen (AID 1346981); further: nearly all actives have a fitted effect of over 30% in size
Conditions: CellTiter-Fluor fluorescence, 17 h; series mostly up to 92.4 µM
Inconclusive results are not listed. Active and inactive are the calls of the source. The call rests on the fitted dose curve; in most records, active means well fitted cell-killing curve with a large enough effect in the repeat runs; inconclusive means weak or mixed curves, or effect the other way; inactive means flat fitted curve, though single readings scatter.
Select the matching outcome among active, inactive

Prompt: State the result this test recorded for `C[C@]12CC[C@@H]3c4ccc(OC(=O)N(CCCl)CCCl)cc4CC[C@H]3[C@@H]1CC[C@@H]2O` .
Response: inactive

Prompt: Can you look up the reported call for `O=C(Nc1ccc2[nH]ccc2c1)c1cc2cc(F)ccc2n1Cc1cccc(F)c1` for me?
Response: active

Prompt: Recorded test call requested for `ClC1=C(Cl)[C@]2(Cl)[C@H]3[C@H]([C@H]4C=C[C@H]3C4)[C@@]1(Cl)C2(Cl)Cl`
Response: inactive

* * *

Experiment: qHTS assay to identify small molecule antagonists of the retinoid-related orphan receptor gamma (ROR-gamma) signaling pathway - cell viability counter screen (AID 1159520); further: nearly all actives have a fitted effect of over 50% in size
Conditions: Tet-on RORgamma CHO cells viability, ATP luminescence, 16 h; series mostly up to 92.4 µM
Inconclusive results are not listed. Activity calls are given as the source filed them. The call rests on the fitted dose curve; in most records, active means well fitted cell-killing curve with a large enough effect in the repeat runs; inconclusive means weak or mixed curves, or effect the other way; inactive means no such curve, though single readings can be large or run the other way.
Please reply with one of these outcomes: active, inactive

Consider the following illustrative entries.
[
  {
    "compound": "c1ccc(OCC2CO2)cc1 (stereo unspecified)",
    "label": "inactive"
  },
  {
    "compound": "ClC1=C(Cl)[C@]2(Cl)[C@@H]3[C@@H](Cl)[C@H](Cl)C[C@@H]3[C@@]1(Cl)C2(Cl)Cl",
    "label": "inactive"
  },
  {
    "compound": "CC(C)(COCC1CO1)COCC1CO1 (stereo unspecified)",
    "label": "inactive"
  },
  {
    "compound": "CCOC(=O)OC1=C(c2cc(C)ccc2C)C(=O)NC12CCC(OC)CC2 (stereo unspecified)",
    "label": "inactive"
  },
  {
    "compound": "CN(C)[C@@H]1C(=O)C(C(N)=O)=C(O)[C@@]2(O)C(=O)C3=C(O)c4c(O)ccc(Cl)c4[C@@](C)(O)[C@H]3C[C@@H]12",
    "label": "inactive"
  },
  {
    "compound": "C[CH2][Hg][N]1C(=O)C2C(C1=O)C1(Cl)C(Cl)=C(Cl)C2(Cl)C1(Cl)Cl (stereo unspecified)",
    "label": "active"
  },
  {
    "compound": "C[C@@H](Oc1ccc(Cl)cc1Cl)C(=O)O",
    "label": "inactive"
  },
  {
    "compound": "N#Cc1ccccc1N",
    "label": "inactive"
  }
]

Prompt: Field: outcome | Entry: `CC(=O)/C=C/c1ccc2c(c1)OCO2`
Response: inactive

Prompt: I'd appreciate the recorded outcome for `N#CC(Cl)Cl` from this test.
Response: inactive

Prompt: Could you kindly confirm the outcome this assay logged for `CCOCn1c(-c2ccc(Cl)cc2)c(C#N)c(Br)c1C(F)(F)F` ?
Response: active

* * *

Assay: qHTS RealTime-Glo MT Cell Viability Assay in HepG2 cells - 8 hour (AID 1224873); further: nearly all actives have a fitted effect of over 55% in size
Conditions: RealTime-Glo luminescence; series mostly up to 76.8 µM
Source text: National Center for Advancing Translational Sciences [NCATS] NIH Chemical Genomics Center [NCGC] U.S. Environmental Protection Agency [EPA] National Institutes of Environmental Health Sciences [NIEHS] National Toxicology Program [NTP] U.S. Food and Drug Administration [FDA] Measure of cell viability is critical in the cell-base assay. Analysis of cell viability is necessary for the characterization of cell responses to cytotoxic drugs and environmental stress. […]
Inconclusive results are not listed. The source made the active and inactive calls. Calls come from the whole dose curve; as a rule, active = well fitted cell-killing curve with a large enough effect in the repeat runs; inconclusive = weak or mixed curves; inactive = flat fitted curve, though single readings scatter.
Pick one and only one: active, inactive

[
  {
    "compound string": "O=c1ssc(Cl)c1Cl",
    "label": "active"
  },
  {
    "compound string": "O=[N+]([O-])c1cc(Cl)ccc1Cl",
    "label": "inactive"
  },
  {
    "compound string": "Oc1ccc(C(c2ccc(O)cc2)(C(F)(F)F)C(F)(F)F)cc1",
    "label": "inactive"
  },
  {
    "compound string": "Clc1ccc(C(Cl)(Cl)Cl)c(Cl)c1",
    "label": "inactive"
  },
  {
    "compound string": "CCOC(=O)c1ccccc1S(=O)(=O)NC(=O)Nc1nc(Cl)cc(OC)n1",
    "label": "inactive"
  },
  {
    "compound string": "ClCCN1CCOCC1",
    "label": "inactive"
  },
  {
    "compound string": "Cc1cc(C(F)(C(F)(F)F)C(F)(F)F)ccc1NC(=O)c1cccc(I)c1C(=O)NC(C)(C)CS(C)(=O)=O",
    "label": "inactive"
  },
  {
    "compound string": "CC(C)CCCCCOC(=O)c1ccccc1C(=O)OCCCCCC(C)C",
    "label": "inactive"
  },
  {
    "compound string": "C=COCCCl",
    "label": "inactive"
  },
  {
    "compound string": "O=C(NC(=O)c1c(F)cccc1F)Nc1cc(Cl)c(OC(F)(F)C(F)F)c(Cl)c1",
    "label": "inactive"
  }
]

Prompt: Fill in: this test's call for `c1ccc2c(c1)[nH]c1cnccc12` is ___
Response: inactive

Prompt: Called result for `O=C(CCCN1CCC2(CC1)C(=O)NCN2c1ccccc1)c1ccc(F)cc1`
Response: inactive
